# Method Summary: passive permeability, PAMPA, ADME assay (AID 1508612)
# Condition: pH 7.4, 30.0 min, 50.0 µM
Give measured Papp for each item. Keep answers brief.

Asked: // fetch Papp given entry CCN(CCCOc1ccc2c(Nc3cc(CC(=O)Nc4cccc(F)c4)[nH]n3)ncnc2c1)CCOP(=O)(O)O
Given back: < 10 nm/s

Asked: // fetch Papp given entry O=C(c1cnn(-c2cccc(F)c2)c1-n1cccc1)N1CCN(c2ccccc2F)CC1
Given back: > 10000 nm/s

Asked: // fetch Papp given entry Cc1cnc(-c2ccccc2C(C)C)nc1NCC1CCN(c2cccnc2)CC1
Given back: > 10000 nm/s

Asked: // fetch Papp given entry Cc1cc(-c2nnc3n2CCCCC3)c(C)n1-c1ccc(Cl)cc1
Given back: > 10000 nm/s

Asked: // fetch Papp given entry O=C(Cc1nc2ccc(Cl)cc2[nH]1)Nc1ccc(S(=O)(=O)Nc2nccs2)cc1
Given back: < 10 nm/s

Asked: // fetch Papp given entry COc1ncc(-c2ccc3c(Nc4cc(Oc5cc(F)cc(F)c5)cc(C(=O)O)c4)c(S(=O)(=O)NC4CC4)cnc3c2)c(OC)n1
Given back: < 10 nm/s

Asked: // fetch Papp given entry Cc1ccc(C(=O)Nc2nc3nc(C)cc(=O)n3[nH]2)cc1
Given back: < 10 nm/s

Asked: // fetch Papp given entry CCc1ccc(NC(=O)CSC2=Nc3ccccc3C3=NC(CC(=O)NCc4ccc5c(c4)OCO5)C(=O)N23)cc1 (stereo not drawn)
Given back: < 10 nm/s

----------
# Method Summary: passive permeability, PAMPA, ADME assay (AID 1508612)
# Condition: pH 7.4, 30.0 min, 50.0 µM
Endpoint: Papp

Asked: // fetch Papp given entry O=C(c1ccccc1)N1CCC(C(=O)N2CCC(N3Cc4ccccc4C3=O)CC2)CC1
Given back: 24.9 ×10⁻⁶ cm/s

Asked: // fetch Papp given entry Clc1ccc(-c2nnc(C3CCCCC3)o2)cc1
Given back: > 1000 ×10⁻⁶ cm/s

Asked: // fetch Papp given entry COC(=O)[C@@]12OC[C@]34[C@H]([C@@H](O)[C@@H]1O)[C@@]1(C)CC(=O)C(O)=C(C)[C@@H]1C[C@H]3OC(=O)[C@H](OC(=O)/C=C(\C)C(C)C)[C@@H]24
Given back: 120 ×10⁻⁶ cm/s

Asked: // fetch Papp given entry O=C(Nc1ccc(Cl)cc1)Nc1ccc(Cl)c(Cl)c1
Given back: 240 ×10⁻⁶ cm/s

Asked: // fetch Papp given entry O=C(Nc1ccc2oc(-c3cccnc3)nc2c1)c1ccc(-c2cccc(Cl)c2)o1
Given back: 310 ×10⁻⁶ cm/s

Asked: // fetch Papp given entry Oc1ccc(-c2nc(C3CC3)nc3c2CCN(Cc2ccc(F)cc2)CC3)cc1
Given back: > 1000 ×10⁻⁶ cm/s

Asked: // fetch Papp given entry O=C(Cc1cccc(OC(F)(F)F)c1)Nc1ccc(CCCCc2nnc(NC(=O)Cc3ccccn3)s2)nn1
Given back: 161 ×10⁻⁶ cm/s

----------
# Method Summary: passive permeability, PAMPA, ADME assay (AID 1508612)
# Condition: pH 7.4, 30.0 min, 50.0 µM
Give measured Papp for each item. Keep answers brief.

Asked: // fetch Papp given entry Cn1c(=O)c2c(-c3ccc(Cl)cc3)n(CCc3ccccc3)cc2n(C)c1=O
Given back: > 1000 ×10⁻⁶ cm/s

Asked: // fetch Papp given entry C[C@@H](O)CNC(C)(C)CC(=O)N[C@@H]1CCc2ccccc2N(Cc2ccc(-c3ccccc3-c3nn[nH]n3)cc2)C1=O
Given back: < 1 ×10⁻⁶ cm/s

Asked: // fetch Papp given entry COc1cccc(C(=O)Nc2nc(-c3nnn(-c4cccc(Cl)c4C)c3C)ns2)c1
Given back: 321 ×10⁻⁶ cm/s

Asked: // fetch Papp given entry Oc1ccc(-c2nc(C3CC3)nc3c2CCN(CC2CCCCC2)CC3)cc1
Given back: > 1000 ×10⁻⁶ cm/s

Asked: // fetch Papp given entry CCc1ccc2oc(NC3=NC(c4[nH]ncc4Cl)C4=C(CCCC4=O)N3)nc2c1 (stereo not drawn)
Given back: 916 ×10⁻⁶ cm/s

Asked: // fetch Papp given entry Cc1ccccc1C(=O)N1CCc2cc(-c3ccnc(NC(=O)Cc4ccccc4)n3)ccc21
Given back: > 1000 ×10⁻⁶ cm/s

Asked: // fetch Papp given entry O=C(Cc1ccc(O)cc1)N1CC(CNc2ccccc2)C2(C1)CN(c1ccccc1)C2 (stereo not drawn)
Given back: 197 ×10⁻⁶ cm/s

Asked: // fetch Papp given entry CCOc1ccc(CCNC(=O)c2ccc3ccccc3n2)cc1OCC
Given back: > 1000 ×10⁻⁶ cm/s

----------
# Method Summary: passive permeability, PAMPA, ADME assay (AID 1508612)
# Condition: pH 7.4, 30.0 min, 50.0 µM
Endpoint: Papp (×10⁻⁶ cm/s)
Return type: number; implicit unit ×10⁻⁶ cm/s.

Asked: // fetch Papp given entry Cc1nc2ccc(NC(=O)c3cc(S(=O)(=O)N(C)c4ccccc4)ccc3Cl)cc2s1
Given back: 70

Asked: // fetch Papp given entry Cc1ccc(S(=O)(=O)Nc2cnccc2C(=O)Nc2ccccc2)cc1
Given back: 123

Asked: // fetch Papp given entry CCC(CC)(NC(=O)C(C)C)C(=O)N[C@@H](CCCN=C(N)N)C(=O)NC1(C(=O)NC(c2ccc(F)cc2)c2ccc(F)cc2)CCCC1
Given back: 8

----------
# Method Summary: passive permeability, PAMPA, ADME assay (AID 1508612)
# Condition: pH 7.4, 30.0 min, 50.0 µM
Endpoint: Papp

Asked: // fetch Papp given entry COc1ccccc1Nc1ccnc(N2CCN(C(=O)c3ccc(C)cc3)CC2)n1
Given back: > 1000 ×10⁻⁶ cm/s

Asked: // fetch Papp given entry Ic1ccccc1CNC1C2CCN(CC2)C1C(c1ccccc1)c1ccccc1 (configuration not stated)
Given back: > 1000 ×10⁻⁶ cm/s

Asked: // fetch Papp given entry COc1cc(Cl)c(C)cc1Nc1c2c(nc3ccccc13)CCC2
Given back: > 1000 ×10⁻⁶ cm/s

Asked: // fetch Papp given entry NCC(=O)Nc1ccc(Cl)cc1C(=O)c1ccc[nH]1
Given back: > 1000 ×10⁻⁶ cm/s

Asked: // fetch Papp given entry CCOC(=O)c1ccc(-c2ccc3ncnc(NCCc4cnc[nH]4)c3c2)o1
Given back: > 1000 ×10⁻⁶ cm/s

Asked: // fetch Papp given entry COC(=O)CNC(=O)c1nc(-c2ccccc2OC)c2ccccn12
Given back: > 1000 ×10⁻⁶ cm/s

Asked: // fetch Papp given entry COc1cc(-c2nc(-c3c(C)noc3C)cc3c2cc(C)n3CCN(C)C)ccn1
Given back: > 1000 ×10⁻⁶ cm/s

Asked: // fetch Papp given entry CNc1nc(C#N)c(-c2cccc3ccccc23)o1
Given back: > 1000 ×10⁻⁶ cm/s

Asked: // fetch Papp given entry CCN1CCN(C(=O)CCCn2nc(C)c3c(C)n(-c4ccc(C)cc4)nc3c2=O)CC1
Given back: 175 ×10⁻⁶ cm/s

Asked: // fetch Papp given entry CC(=O)c1c(C)c(C(=O)Nc2cccc([S+](=O)([O-])N3CCCCCC3)c2)n(C)c1C
Given back: > 1000 ×10⁻⁶ cm/s

Asked: // fetch Papp given entry Cc1cc(NC(=O)c2ccc(NC(=O)Cc3ccc(Cl)c(Cl)c3)cc2)no1
Given back: > 1000 ×10⁻⁶ cm/s

Asked: // fetch Papp given entry Cc1ccc(C)c(NC2=C(c3ccc(C(F)(F)F)cc3)C(=O)c3ccccc32)c1
Given back: < 1 ×10⁻⁶ cm/s

Asked: // fetch Papp given entry COc1nccc(-c2nc(Nc3ccc(F)c(F)c3)c3ccccc3n2)c1OC
Given back: > 1000 ×10⁻⁶ cm/s

Asked: // fetch Papp given entry NC(=O)C1CCN(c2nc(-c3ccc(OC(F)(F)F)cc3)cs2)CC1
Given back: 104 ×10⁻⁶ cm/s

Asked: // fetch Papp given entry COc1ccc(CNC(=O)c2cnc3ccccc3n2)cc1
Given back: > 1000 ×10⁻⁶ cm/s

Asked: // fetch Papp given entry COc1ccc(NC(C)=O)cc1S(=O)(=O)Nc1ccc(Br)cc1
Given back: 627 ×10⁻⁶ cm/s

Asked: // fetch Papp given entry Cc1ccc2nc(-c3ccccn3)c(Nc3ccccc3C)n2c1
Given back: > 1000 ×10⁻⁶ cm/s

----------
# Method Summary: passive permeability, PAMPA, ADME assay (AID 1508612)
# Condition: pH 7.4, 30.0 min, 50.0 µM
Endpoint: Papp (×10⁻⁶ cm/s)
Return type: number; implicit unit ×10⁻⁶ cm/s.

Asked: // fetch Papp given entry O=S(=O)(c1ccccc1)N1CCN(c2nc(-c3ccc(Br)cc3)cs2)CC1
Given back: 205

Asked: // fetch Papp given entry CCNC(=O)Nc1ncc(-c2cc(-c3c(C)cc(OC)cc3C)nc(-c3cnccn3)n2)s1
Given back: 762

Asked: // fetch Papp given entry O=C(O)c1c(Sc2ccccc2)c2cc(Cl)ccc2n1Cc1ccc(Cl)cc1
Given back: 709

Asked: // fetch Papp given entry CCOc1ccc(N2CC(c3nc(-c4ccccn4)no3)CC2=O)cc1 (stereo not given)
Given back: 297

Asked: // fetch Papp given entry C[S+](=O)([O-])c1ccc(-c2nc(C(=O)N3CCOCC3)n3ccccc23)cc1
Given back: 180

Asked: // fetch Papp given entry O=[N+]([O-])c1ccc(CNc2ccc([S+](=O)([O-])Nc3nccs3)cc2)c(O)c1
Given back: 1.2

Asked: // fetch Papp given entry Cc1ccc(-c2cc(C(=O)Nc3ccc(S(=O)(=O)NCc4nccs4)cc3)c3ccccc3n2)cc1C
Given back: 6

Asked: // fetch Papp given entry Brc1ccc(-c2csc(N3CCC(c4nn[nH]n4)CC3)n2)cc1
Given back: 141

Asked: // fetch Papp given entry Cc1nc2nc(NC(=O)c3ccc(C(C)(C)C)cc3)[nH]n2c(=O)c1Cl
Given back: 8.91

Asked: // fetch Papp given entry NC(=O)c1cnc(N[C@@H]2CCCC[C@@H]2N)nc1Nc1cccc(-n2nccn2)c1
Given back: 11.7

Asked: // fetch Papp given entry N=c1c2c(ncn1-c1ccccc1)Oc1ccc3ccccc3c1C2c1ccc2c(c1)CCO2 (stereo not given)
Given back: 282

Asked: // fetch Papp given entry Cc1cc(C)nc(NC(=S)N2CCN(c3ccc4nsnc4c3)CC2)c1
Given back: 707

Asked: // fetch Papp given entry CCOc1ccc(CCNC(=O)c2cc3cccnc3n2Cc2cccc(C)n2)cc1OCC
Given back: 744

Asked: // fetch Papp given entry CN(C)c1cccc(-c2cnc(N3CCC(C(N)=O)CC3)nc2)c1
Given back: 273

Asked: // fetch Papp given entry O=C1CCc2cc(S(=O)(=O)Nc3ccc(F)c(Cl)c3)c(F)cc2N1
Given back: 861
